B1: LINE1-mini (parent)
chain: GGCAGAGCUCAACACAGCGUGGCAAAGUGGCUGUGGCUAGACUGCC

Variants of: B1
Assay: self-cleavage, relative activity (ratio to wild type); higher = more cleavage; in vitro, sequencing; the parent is a self-cleaving ribozyme
Quantity measured: self-cleavage

1. C8G C31G = 0.05
2. G5C G44A = 0.05
3. U32A G36U = 0.05
4. A16C G44A = 0.05
